meta.source: patent US20110177071A1

Molecular target: T1, human CD86-murine Ig fusion protein (human)
T1 construct: Bought (Ancell #509-820); also called hCD86-mIg
T1 chain: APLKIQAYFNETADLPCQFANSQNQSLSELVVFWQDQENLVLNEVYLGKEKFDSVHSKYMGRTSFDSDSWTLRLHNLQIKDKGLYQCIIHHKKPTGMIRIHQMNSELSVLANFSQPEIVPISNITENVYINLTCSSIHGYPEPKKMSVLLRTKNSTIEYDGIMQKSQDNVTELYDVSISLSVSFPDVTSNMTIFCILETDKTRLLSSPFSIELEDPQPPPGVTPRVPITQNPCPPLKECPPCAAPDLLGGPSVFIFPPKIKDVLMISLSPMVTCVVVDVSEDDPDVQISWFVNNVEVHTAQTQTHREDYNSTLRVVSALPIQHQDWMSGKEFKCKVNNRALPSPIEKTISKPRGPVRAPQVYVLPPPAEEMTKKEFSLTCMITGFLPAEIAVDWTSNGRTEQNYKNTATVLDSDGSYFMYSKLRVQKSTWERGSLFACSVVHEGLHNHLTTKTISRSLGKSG
Experiment: SPR Biacore, hCD86-mIg captured
MEASURE: Kd

Qu. Please give the measured Kd for this binder: D3-21-IgG2 (Fc fusion) MHVAQPAVVLASSRGIASFVCEYESPGKANEIRVTVLRQADSQVTEVCAMTYMKGNELTFLDDPSCTGTFSGNQVNLTIQGLRAMDTGLYICKVELMYPPPYYLGFGNGTQIYVIDPEPCPDSDERKCCVECPPCPAPPVAGPSVFLFPPKPKDTLMISRTPEVTCVVVDVSHEDPEVQFNWYVDGVEVHNAKTKPREEQFNSTFRVVSVLTVVHQDWLNGKEYKCKVSNKGLPAPIEKTISKTKGQPREPQVYTLPPSREEMTKNQVSLTCLVKGFYPSDIAVEWESNGQPENNYKTTPPMLDSDGSFFLYSKLTVDKSRWQQGNVFSCSVMHEALHNHYTQKSLSLSPG
Ans. 0.131 to 0.262 nM
